Experiment: qHTS Assay for Lipid Storage Modulators in Drosophila S3 Cells; further: potency means the concentration at half of the fitted maximal effect
Details: BODIPY lipid droplet fluorescence, 18-24 h, cells fed with added oleic acid; series mostly up to 46.1 µM
Hit rate of the full screen: of about 320,000 compounds, about 2,100 (0.66%) were called active. Roughly 53% stayed inconclusive and do not appear here. This is one part of a sample in which actives are shown more often than they occur.

{"compound": "CC1(C)c2ssc(=S)c2-c2ccccc2N1C(=O)c1ccco1", "Potency": "8.2 µM (active)"}
{"compound": "Cc1cccc(C(=O)NCc2nnc(SCC(=O)Nc3nncs3)n2C)c1", "Potency": "inactive"}
{"compound": "Cc1ccc2c(c1)N(C(=O)CSc1nncn1C)C(C)(C)c1ssc(=S)c1-2", "Potency": "inactive"}
{"compound": "Cc1cc2occ(CC(=O)Nc3nccs3)c2cc1C(C)C", "Potency": "inactive"}
{"compound": "Cn1cnnc1SCC(=O)N1c2ccccc2-c2c(ssc2=S)C1(C)C", "Potency": "inactive"}
{"compound": "Cc1ccc2c(CC(=O)NCc3cccs3)coc2c1", "Potency": "inactive"}
{"compound": "COc1ccc(N2CCN(C(c3ccc4ncccc4c3)c3nnnn3C(C)C)CC2)cc1 (configuration not stated)", "Potency": "inactive"}
{"compound": "CCOC(=O)c1[nH]c(C)c(C(=O)OCCN2C(=O)c3ccccc3C2=O)c1C", "Potency": "inactive"}
{"compound": "Cc1ccc(N(C)S(=O)(=O)c2cccc(C(=O)NCC(c3ccco3)N3CCCC3)c2)cc1 (configuration not stated)", "Potency": "7.31 µM (active)"}
{"compound": "COCCN=c1scc(-c2ccc3c(c2)NC(=O)CO3)n1/N=C(\\C)c1ccc(O)cc1", "Potency": "inactive"}
{"compound": "COCCn1ccc2c(OCC(=O)NCc3ccccc3)cccc2c1=O", "Potency": "inactive"}
{"compound": "COc1ccc2c(C)cc(N3CCOCC3)nc2c1", "Potency": "4.61 µM (active)"}
{"compound": "COc1ccc(N(C)S(=O)(=O)c2cccc(C(=O)NCC(c3ccco3)N3CCCC3)c2)cc1 (configuration not stated)", "Potency": "inactive"}
{"compound": "COc1cc2c(cc1OC)CN(c1nc(-c3cccnc3)nc3ccccc13)CC2", "Potency": "inactive"}
{"compound": "Cc1ccc(NC(=O)c2cn(CCC#N)nc2-c2cccs2)c([N+](=O)[O-])c1", "Potency": "inactive"}
{"compound": "COc1ccc(N2CCN(C(=O)c3ccc(CNS(=O)(=O)c4cc(C)ccc4C)cc3)CC2)cc1", "Potency": "7.31 µM (active)"}
{"compound": "CC(=O)c1c(C)[nH]c(C(=O)OCC(=O)N2CC(=O)Nc3ccccc32)c1C", "Potency": "inactive"}
{"compound": "Cc1cc(N2CCOCC2)nc2cc(O)ccc12", "Potency": "inactive"}
{"compound": "O=C(CS(=O)(=O)Cc1ccccc1)NCc1ccco1", "Potency": "inactive"}
{"compound": "CN(C)C(CNC(=O)c1cc(S(=O)(=O)N(C)c2ccc(F)cc2)ccc1Cl)c1ccco1 (configuration not stated)", "Potency": "inactive"}
{"compound": "O=C1CCCc2ccccc2N1", "Potency": "inactive"}
{"compound": "CC(=O)c1c2c3c(cccc3n(C)c1=O)C(=O)c1ccccc1-2", "Potency": "inactive"}
